Each entry below lists one item and its recorded IC50 value.
target: p38 MAPKα (Homo sapiens (Human))
Sequence (Q16539 whole entry): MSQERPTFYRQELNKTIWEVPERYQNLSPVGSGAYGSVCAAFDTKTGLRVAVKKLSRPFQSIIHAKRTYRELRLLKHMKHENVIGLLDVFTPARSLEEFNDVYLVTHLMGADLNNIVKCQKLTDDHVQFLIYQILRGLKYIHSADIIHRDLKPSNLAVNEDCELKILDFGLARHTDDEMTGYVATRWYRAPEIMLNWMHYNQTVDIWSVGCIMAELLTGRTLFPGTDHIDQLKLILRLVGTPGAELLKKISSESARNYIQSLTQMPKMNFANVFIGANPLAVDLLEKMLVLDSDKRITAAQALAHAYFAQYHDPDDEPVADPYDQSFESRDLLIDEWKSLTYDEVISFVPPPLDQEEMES
measureName: IC50

> print(dat)
                             smilesstructure  observedresult
 1  COc1cc(Nc2nccc(Oc3ccc(NC(=O)Nc4cc(C(C)C)nn4-c4ccc(C)cc4)c4ccccc34)n2)cc(OCCN2CCOCC2)c1        > 280 nM
 2  COCCOCCOCCOCCOCCOc1cc(Nc2nccc(Oc3ccc(NC(=O)Nc4cc(C(C)C)nn4-c4ccc(C)cc4)c4ccccc34)n2)cc(OC)c1           32 nM
 3  COCCOCCOCCOc1cc(Nc2nccc(Oc3ccc(NC(=O)Nc4cc(C(C)C)nn4-c4ccc(C)cc4)c(Cl)c3Cl)n2)cc(OC)c1          487 nM
 4  C#Cc1cccc(Nc2nccc(Oc3ccc(NC(=O)Nc4cc(C(C)(C)C)nn4-c4ccc(OC)nc4)c4ccccc34)n2)c1          316 nM
 5  COc1cc(Nc2nccc(Oc3ccc(NC(=O)Nc4cc(C(C)(C)C)nn4-c4ccc(C)cc4)c4ccccc34)n2)cc(SCCN2CCOCC2)c1          224 nM
 6  COc1cc(Nc2nccc(Oc3ccc(NC(=O)Nc4cc(C(C)(C)C)nn4-c4ccc(C)cc4)c4ccccc34)n2)cc(S(=O)(=O)C2CC2)c1          162 nM
 7  COc1cc(Nc2nccc(Oc3ccc(NC(=O)Nc4cc(C(C)(C)C)nn4-c4ccc(C)cc4)c4ccccc34)n2)cc(OCCN2CCOCC2)c1          144 nM
 8  COCCOCCOCCOc1cc(Nc2nccc(Oc3ccc(NC(=O)Nc4cc(C(C)(C)C)nn4-c4ccc(C)cc4)c(Cl)c3Cl)n2)cc(OC)c1          816 nM
 9  COc1cc(Nc2nccc(Oc3ccc(NC(=O)Nc4cc(C(C)(C)C)nn4-c4ccc(C)cc4)c4ccccc34)n2)cc(SCCCN2CCOCC2)c1          291 nM
10  COc1ccc(-n2nc(C(C)(C)C)cc2NC(=O)Nc2ccc(Oc3ccnc(Nc4cccc(N=S(C)(C)=O)c4)n3)c3ccccc23)cn1           81 nM
11  COCCOCCOCCOc1cc(Nc2nccc(Oc3ccc(NC(=O)Nc4cc(C(C)(C)C)nn4-c4ccc(OC)cc4)c4ccccc34)n2)cc(OC)c1          103 nM
12  COCCOCCOCCOc1cc(Nc2nccc(Oc3ccc(NC(=O)Nc4cc(C(C)(C)C)nn4-c4ccc(OC)nc4)c4ccccc34)n2)cc(OC)c1          132 nM
